system: HL-60(TB) leukemia; assay: NCI tumour cell line growth inhibition, 48 h; in the data active = GI50 below about 0.43 µM; inactive = the rest
Entry note: the call must match one of yes (active), no (inactive)

Here are 8 compounds together with their reported answers.
compound: CCC(=O)c1c(C(F)(F)F)n([O-])c2cc(N3CCNCC3)c(F)cc2[n+]1=O
class: no

compound: COc1cc(C)cc2c1[nH]c1ccccc12
class: no

compound: O=C1Nc2ccccc2/C1=C\c1c[nH]c2ccc(Br)cc12
class: no

compound: N[C@H]1C[C@@H]1c1ccc(-c2cccc(O)c2)cc1
class: no

compound: Cc1c2c(nn1-c1ccc(S/N=C3\SCC(=O)CN3Cc3ccccc3)cc1)-c1ccccc1CC2
class: no

compound: Cn1cc(-c2nonc2-c2cn(C)c3ccc(F)cc23)c2ccccc21
class: yes

compound: Cc1cc(Nc2nc(-c3ccc(F)cc3)nc3ccccc23)n[nH]1
class: no

compound: COc1cc(-c2cc(/C=C3\C(=O)Nc4cc(Cl)ccc43)[nH]n2)cc(OC)c1OC
class: no

# fetch the recorded call for Clc1ccc(CNc2ccc3nc(CCC4CCCCC4)[nH]c3c2)cc1 here
no

====

system: DU-145 prostate; assay: NCI tumour cell line growth inhibition, 48 h; in the data active = GI50 below about 0.43 µM; inactive = the rest
Entry note: the call must match one of active, inactive

Here are 5 compounds together with their reported answers.
compound: CCCN1CCN(c2ccc3nc(-c4ccc5nc(-c6ccc(C(F)(F)F)cc6)[nH]c5c4)[nH]c3c2)CC1
target.of.assay: DU-145 prostate
class: inactive
--
compound: C[C@H]1CCC/C=C/[C@@H]2C[C@H](O)C[C@H]2[C@H](O)[C@@H](S(=O)C[C@@H](N)C(=O)O)CC(=O)O1 (some centres not stated)
target.of.assay: DU-145 prostate
class: inactive
--
compound: CSc1nc(N)cc(Oc2ccc(-c3nc(Nc4cccc(C(F)(F)F)c4)n[nH]3)cc2)n1
target.of.assay: DU-145 prostate
class: inactive
--
compound: COc1cc(-c2cc(/C=C3\C(=O)Nc4cc(Cl)ccc43)[nH]n2)cc(OC)c1OC
target.of.assay: DU-145 prostate
class: inactive
--
compound: Cc1cc(Nc2nc(-c3ccc(F)cc3)nc3ccccc23)n[nH]1
target.of.assay: DU-145 prostate
class: inactive

# fetch the recorded call for O=C1C=CC=C[C@@H]2C(C3OCCO3)CC[C@H]12.[C-]#[O+].[C-]#[O+].[C-]#[O+].[Fe] (some centres not stated) here
inactive

Another: Cc1ncc(C(=O)Nc2ccc(CN3CCN(C)CC3)c(C(F)(F)F)c2)cc1C#Cc1c(N)ncc2ccc(F)cc12
inactive

Another: Clc1nc(Cl)c2ncn(C/C=C\COc3cccc(OC/C=C\Cn4cnc5c(Cl)nc(Cl)nc54)c3)c2n1
inactive

Another: Cn1cc(C2=C(Oc3ccccc3)C(=O)NC2=O)c2ccccc21
inactive

Another: O=C1NC(=NCc2ccccc2Br)S/C1=C\c1ccc2ncccc2c1
inactive

====

GI50 for assorted molecules
tested on: SF-295 CNS; experiment: NCI tumour cell line growth inhibition, 48 h

Known GI50 results, listed for orientation:
molecule: O=C1/C(=C\c2ccc(Cl)cc2)CCOc2c1ccc1ccccc21
target.of.assay: SF-295 CNS
recorded.measurement: 33.5 µM
--
molecule: O=C1NC(=NCc2ccccc2Br)S/C1=C\c1ccc2ncccc2c1
target.of.assay: SF-295 CNS
recorded.measurement: 8.03 µM
--
molecule: COc1ccc(C2C(C#N)=C(N)Oc3c2sc2c(F)cccc32)cc1 (stereo unspecified)
target.of.assay: SF-295 CNS
recorded.measurement: 2.1 µM
--
molecule: Cc1cc(Nc2nc(-c3ccc(F)cc3)nc3ccccc23)n[nH]1
target.of.assay: SF-295 CNS
recorded.measurement: 5.36 µM
--
molecule: CC(C)(O)/C=C/C(=O)[C@](C)(O)[C@H]1[C@H](O)C[C@@]2(C)[C@@H]3CC=C4[C@@H](C=C(O)C(=O)C4(C)C)[C@]3(C)C(=O)C[C@]12C
target.of.assay: SF-295 CNS
recorded.measurement: 0.275 µM
--
molecule: COc1cccc(/C(COc2ccc3c(c2)oc(=O)c2ccccc23)=N\O)c1
target.of.assay: SF-295 CNS
recorded.measurement: 33.3 µM
--
molecule: O=c1oc2ccc(Br)cc2c(=O)n1-c1ccc(Br)cc1F
target.of.assay: SF-295 CNS
recorded.measurement: 1.49 µM
--
molecule: O=C(NCCCN1CCC(N2CCCCC2)CC1)C1=Cc2cc(Br)ccc2OC1
target.of.assay: SF-295 CNS
recorded.measurement: 8.58 µM

Return reported GI50; argument: O=C1Nc2ccccc2/C1=C\c1c[nH]c2ccc(Br)cc12
3.99 µM

Another: Clc1ccc(Nc2nnc(CNc3ccccc3)c3ccccc23)cc1
2.98 µM

Another: CCCN1CCN(c2ccc3nc(-c4ccc5nc(-c6ccc(C(F)(F)F)cc6)[nH]c5c4)[nH]c3c2)CC1
1.66 µM
